- Measurement target: T1, C-terminally FLAG-tagged human Gas6 recombinant protein (hGas6-F) (human, UniProt Q14393 31-678, gamma-carboxylated glutamic acid residues in the Gla domain (producer cells co-express rat VKOR and human GGCX); positions not given)
- T1 construct: also called human Gas6-F; human Gas6 protein
- T1 sequence: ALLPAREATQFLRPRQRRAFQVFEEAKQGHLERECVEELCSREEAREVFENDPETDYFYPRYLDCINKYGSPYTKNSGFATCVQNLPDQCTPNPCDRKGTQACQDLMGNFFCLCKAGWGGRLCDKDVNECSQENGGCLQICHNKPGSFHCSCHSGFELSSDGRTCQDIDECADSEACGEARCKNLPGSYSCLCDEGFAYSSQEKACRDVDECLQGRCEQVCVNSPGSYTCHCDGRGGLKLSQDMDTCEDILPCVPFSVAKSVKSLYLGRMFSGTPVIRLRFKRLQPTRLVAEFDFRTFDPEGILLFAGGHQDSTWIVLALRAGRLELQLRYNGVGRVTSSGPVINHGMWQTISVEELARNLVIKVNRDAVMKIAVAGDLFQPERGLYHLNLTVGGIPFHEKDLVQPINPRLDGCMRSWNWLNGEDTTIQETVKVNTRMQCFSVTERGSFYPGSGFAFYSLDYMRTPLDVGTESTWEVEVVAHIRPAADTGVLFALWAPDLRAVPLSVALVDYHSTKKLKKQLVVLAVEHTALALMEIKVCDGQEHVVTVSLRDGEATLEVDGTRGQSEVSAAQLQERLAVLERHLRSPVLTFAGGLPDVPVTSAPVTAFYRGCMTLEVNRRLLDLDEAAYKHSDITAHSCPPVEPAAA
- Measurement notes: SPR Biacore T100, captured antibody, Gas6 analyte, retest
Assignment: determine reported koff for the given binders.
Give bare numbers, in s⁻¹.

Here are 2 binders together with their reported answers.
| Binder | koff [s⁻¹] |
| --- | --- |
| KM5320 chimeric antibody (antibody, V domains shown, also called KM5320 chimera; A-01) VH: QIQLVQSGPELKKPGETVKISCKASGYTFTNYGMNWVKQAPGKGLKWMGWINTETGEPTYSDDFKGRFAFSLETSATTAYLQINNLRNEDMATYFCAREDGYYGTLDYWGQGTSVTVSS VL: SIVMTQTPKFLLVSAGDRVTITCKASQSVSNDVAWYQQKPGQSPKVLIYYASNRYTGVPDRFTGSGYGTDFTFTISTVQAEDLAVYFCQQDYSSPWTFGGGTKLEIK | 0.000135 |
| hzKM5320 LV5HV2 antibody (antibody, V domains shown, Humanized; variant human IgG4 constant region (EU S228P, L235E, R409K), human kappa; also called kzKM5320 LV5HV2; A-20) VH: QVQLVQSGSELKKPGASVKVSCKASGYTFTNYGMNWVRQAPGQGLEWMGWINTETGEPTYSDDFKGRFVFSLDTSVSTAYLQISSLKAEDTATYFCAREDGYYGTLDYWGQGTTVTVSS VL: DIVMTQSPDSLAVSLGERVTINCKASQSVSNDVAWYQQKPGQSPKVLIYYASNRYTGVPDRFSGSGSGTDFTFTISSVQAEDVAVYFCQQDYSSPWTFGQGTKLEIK | 0.000197 |

From here, focus on the item given below.
The binder listed as hzKM5321 LV7bHV0 antibody (antibody, V domains shown, Humanized; variant human IgG4 constant region (EU S228P, L235E, R409K), human kappa; also called B-10; LV7bHV0) VH: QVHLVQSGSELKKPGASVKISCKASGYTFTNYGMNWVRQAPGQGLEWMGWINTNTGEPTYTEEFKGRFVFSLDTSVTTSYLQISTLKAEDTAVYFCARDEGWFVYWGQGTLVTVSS VL: ETTVTQSPSSLSVSVGDRVTITCITSTDIDDDMNWYQQKPGKAPKLLISEGNTLRPGVPSRFSSSGSGTDFTFTISSTQPEDFADYYCLQTDSVPLTFGQGTKLEIK has a reported koff of 0.000142
